Target: BACE1 (Homo sapiens, UniProt P56817)
Construct: endogenous in cells; host or cells: HEK293 APP cells
Sequence (P56817 46-501): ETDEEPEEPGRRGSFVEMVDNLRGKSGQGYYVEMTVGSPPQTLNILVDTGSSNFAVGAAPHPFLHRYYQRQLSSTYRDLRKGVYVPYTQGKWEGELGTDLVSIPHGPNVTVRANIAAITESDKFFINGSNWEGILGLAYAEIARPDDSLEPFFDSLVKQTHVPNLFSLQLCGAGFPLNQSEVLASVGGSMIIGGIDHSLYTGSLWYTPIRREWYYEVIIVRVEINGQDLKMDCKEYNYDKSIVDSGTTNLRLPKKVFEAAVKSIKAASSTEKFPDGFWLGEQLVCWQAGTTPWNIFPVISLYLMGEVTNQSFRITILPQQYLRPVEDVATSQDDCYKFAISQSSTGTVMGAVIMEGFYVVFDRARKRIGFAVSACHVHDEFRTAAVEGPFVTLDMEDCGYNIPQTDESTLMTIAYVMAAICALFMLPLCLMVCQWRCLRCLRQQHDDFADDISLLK
Experiment: Cellular Aβ-lowering assay (Abeta 40 AlphaLISA, HEK293 APP cells)
Format: cell-based
Conditions: 18-20 hrs incubation, Aβ40 in culture supernatant, read-out: BACE1 cell act. Aβ40 IC50
Reported pIC50 values are given for each entry in this list.
Quick note: pIC50 values are minus log10 of concentrations in mol/L.

Fill in reported pIC50 for this entry: COc1cnc(C(=O)Nc2ccc(F)c([C@@]3(C)N=C(N)C(C)(C)[S@]4(=O)=NCCC[C@H]34)n2)cn1 [Example 2BA]
7.66

Fill in reported pIC50 for this entry: CC1(C)C(N)=N[C@](C)(c2nc(NC(=O)c3ccc(F)cn3)ccc2F)[C@H]2CCN=[S@]21=O [Example 27BA]
6.93

Fill in reported pIC50 for this entry: Cc1cc(F)cnc1C(=O)Nc1ccc(F)c([C@@]2(C)N=C(N)C(C)(C)[S@@]3(=O)=NCCC[C@H]23)n1 [Example 4AA]
7.74

Fill in reported pIC50 for this entry: CC1(C)C(N)=N[C@](C)(c2nc(NC(=O)c3ncc(C#N)cc3Cl)ccc2F)[C@@H]2CCN=[S@@]21=O [Example 25AB]
9.30

Fill in reported pIC50 for this entry: CC1(C)C(N)=N[C@](C)(c2nc(NC(=O)c3ccc(OC(F)F)cn3)ccc2F)[C@H]2CC(F)(F)CN=[S@@]21=O [Example 35AA]
7.06

***
Fill in reported pIC50 for this entry: CC1(C)C(N)=N[C@](C)(c2nc(NC(=O)c3ncc(C#N)cc3Cl)ccc2F)[C@H]2CC3(CC3)CN=[S@@]21=O [Example 49AA]
10.00

Fill in reported pIC50 for this entry: CC1(C)C(N)=N[C@](C)(c2nc(NC(=O)c3cnc(OCC(F)F)cn3)ccc2F)[C@H]2CC(F)(F)CN=[S@@]21=O [Example 46AA]
6.84

====

Molecular target: BACE1 (Homo sapiens, UniProt P56817)
Construct: endogenous in cells
Test: Cellular Aβ-lowering assay (Abeta 40 AlphaLISA, HEK293 APP cells)
Details: 18-20 hrs incubation, Aβ40 in culture supernatant, read-out: BACE1 cell act. Aβ40 IC50
Recorded Metric: IC50 (nM)
The response must be a number in nM with no trailing unit.

Consider the worked cases shown below.
Fill in reported IC50 for this entry: CC1(C)C(N)=N[C@](C)(c2nc(NC(=O)c3ncc(F)cc3Cl)ccc2F)[C@H]2CCN=[S@]21=O [Example 11BA]
117

Fill in reported IC50 for this entry: CC1(C)C(N)=N[C@](C)(c2nc(NC(=O)c3ccc(OC(F)F)cn3)ccc2F)[C@@H]2CCN=[S@@]21=O [Example 14AB]
6.3

Fill in reported IC50 for this entry: CC1(C)C(N)=N[C@](C)(c2nc(NC(=O)c3ccc(Cl)cn3)ccc2F)[C@H]2CC(F)(F)CN=[S@@]21=O [Example 43AA]
56

***
Fill in reported IC50 for this entry: CC1(C)C(N)=N[C@](C)(c2nc(NC(=O)c3ccc(OCC(F)(F)C(F)F)cn3)ccc2F)[C@H]2CCCN=[S@@]21=O
35.4

Fill in reported IC50 for this entry: CC1(C)C(N)=N[C@](C)(c2nc(NC(=O)c3ncc(C#N)cc3Cl)ccc2F)[C@H]2CCN=[S@]21=O [Example 25BA]
15.5

Fill in reported IC50 for this entry: COc1cnc(C(=O)Nc2ccc(F)c([C@@]3(C)N=C(N)C(C)(C)[S@@]4(=O)=NCC(F)(F)C[C@H]34)n2)cn1 [Example 38AA]
295

Fill in reported IC50 for this entry: Cc1cc(C#N)cnc1C(=O)Nc1ccc(F)c([C@@]2(C)N=C(N)C(C)(C)[S@@]3(=O)=NCC4(CC4)C[C@@H]23)n1 [Example 48AB]
13
